experiment: Evaluation of pharmacokinetics in rats; assay type: in vivo; conditions: rat, plasma; male SD rats, 150 mg/kg single intravenous drop infusion for 30 minutes; read-out: Half-Life T1/2 (converted)
measurement.kind: half-life (h)
# number only, unit h dropped from output

Answer with the recorded half-life for the compound listed here: `CN[C@@H]1[C@@H](O)[C@@H](O[C@@H]2[C@@H](O)[C@H](O[C@H]3OC(CNCCOCCONC(=N)N)=CC[C@H]3N)[C@@H](N)C[C@H]2NC(=O)[C@@H](O)CCN)OC[C@]1(C)O`
3.62

* * *

experiment: Study on pharmacokinetics in mice; assay type: in vivo, CD-1 mice; conditions: mouse, plasma; CD-1 male mice, 1 mg/kg single intravenous injection; read-out: Maximum Concentration Cmax
measurement.kind: Cmax (µM)
# number only, unit µM dropped from output

Answer with the recorded Cmax for the compound listed here: CN[C@@H]1[C@@H](O)[C@@H](O[C@@H]2[C@@H](O)[C@H](O[C@H]3OC(CNCCOCCONC(=N)N)=CC[C@H]3N)[C@@H](N)C[C@H]2NC(=O)[C@@H](O)CCN)OC[C@]1(C)O [Compound 1]
7.09
